Reported IC50 values follow for various compounds
# test target: Voltage-dependent L-type calcium channel subunit alpha-1D (Rattus norvegicus, UniProt P27732)
# Sequence (P27732 whole entry): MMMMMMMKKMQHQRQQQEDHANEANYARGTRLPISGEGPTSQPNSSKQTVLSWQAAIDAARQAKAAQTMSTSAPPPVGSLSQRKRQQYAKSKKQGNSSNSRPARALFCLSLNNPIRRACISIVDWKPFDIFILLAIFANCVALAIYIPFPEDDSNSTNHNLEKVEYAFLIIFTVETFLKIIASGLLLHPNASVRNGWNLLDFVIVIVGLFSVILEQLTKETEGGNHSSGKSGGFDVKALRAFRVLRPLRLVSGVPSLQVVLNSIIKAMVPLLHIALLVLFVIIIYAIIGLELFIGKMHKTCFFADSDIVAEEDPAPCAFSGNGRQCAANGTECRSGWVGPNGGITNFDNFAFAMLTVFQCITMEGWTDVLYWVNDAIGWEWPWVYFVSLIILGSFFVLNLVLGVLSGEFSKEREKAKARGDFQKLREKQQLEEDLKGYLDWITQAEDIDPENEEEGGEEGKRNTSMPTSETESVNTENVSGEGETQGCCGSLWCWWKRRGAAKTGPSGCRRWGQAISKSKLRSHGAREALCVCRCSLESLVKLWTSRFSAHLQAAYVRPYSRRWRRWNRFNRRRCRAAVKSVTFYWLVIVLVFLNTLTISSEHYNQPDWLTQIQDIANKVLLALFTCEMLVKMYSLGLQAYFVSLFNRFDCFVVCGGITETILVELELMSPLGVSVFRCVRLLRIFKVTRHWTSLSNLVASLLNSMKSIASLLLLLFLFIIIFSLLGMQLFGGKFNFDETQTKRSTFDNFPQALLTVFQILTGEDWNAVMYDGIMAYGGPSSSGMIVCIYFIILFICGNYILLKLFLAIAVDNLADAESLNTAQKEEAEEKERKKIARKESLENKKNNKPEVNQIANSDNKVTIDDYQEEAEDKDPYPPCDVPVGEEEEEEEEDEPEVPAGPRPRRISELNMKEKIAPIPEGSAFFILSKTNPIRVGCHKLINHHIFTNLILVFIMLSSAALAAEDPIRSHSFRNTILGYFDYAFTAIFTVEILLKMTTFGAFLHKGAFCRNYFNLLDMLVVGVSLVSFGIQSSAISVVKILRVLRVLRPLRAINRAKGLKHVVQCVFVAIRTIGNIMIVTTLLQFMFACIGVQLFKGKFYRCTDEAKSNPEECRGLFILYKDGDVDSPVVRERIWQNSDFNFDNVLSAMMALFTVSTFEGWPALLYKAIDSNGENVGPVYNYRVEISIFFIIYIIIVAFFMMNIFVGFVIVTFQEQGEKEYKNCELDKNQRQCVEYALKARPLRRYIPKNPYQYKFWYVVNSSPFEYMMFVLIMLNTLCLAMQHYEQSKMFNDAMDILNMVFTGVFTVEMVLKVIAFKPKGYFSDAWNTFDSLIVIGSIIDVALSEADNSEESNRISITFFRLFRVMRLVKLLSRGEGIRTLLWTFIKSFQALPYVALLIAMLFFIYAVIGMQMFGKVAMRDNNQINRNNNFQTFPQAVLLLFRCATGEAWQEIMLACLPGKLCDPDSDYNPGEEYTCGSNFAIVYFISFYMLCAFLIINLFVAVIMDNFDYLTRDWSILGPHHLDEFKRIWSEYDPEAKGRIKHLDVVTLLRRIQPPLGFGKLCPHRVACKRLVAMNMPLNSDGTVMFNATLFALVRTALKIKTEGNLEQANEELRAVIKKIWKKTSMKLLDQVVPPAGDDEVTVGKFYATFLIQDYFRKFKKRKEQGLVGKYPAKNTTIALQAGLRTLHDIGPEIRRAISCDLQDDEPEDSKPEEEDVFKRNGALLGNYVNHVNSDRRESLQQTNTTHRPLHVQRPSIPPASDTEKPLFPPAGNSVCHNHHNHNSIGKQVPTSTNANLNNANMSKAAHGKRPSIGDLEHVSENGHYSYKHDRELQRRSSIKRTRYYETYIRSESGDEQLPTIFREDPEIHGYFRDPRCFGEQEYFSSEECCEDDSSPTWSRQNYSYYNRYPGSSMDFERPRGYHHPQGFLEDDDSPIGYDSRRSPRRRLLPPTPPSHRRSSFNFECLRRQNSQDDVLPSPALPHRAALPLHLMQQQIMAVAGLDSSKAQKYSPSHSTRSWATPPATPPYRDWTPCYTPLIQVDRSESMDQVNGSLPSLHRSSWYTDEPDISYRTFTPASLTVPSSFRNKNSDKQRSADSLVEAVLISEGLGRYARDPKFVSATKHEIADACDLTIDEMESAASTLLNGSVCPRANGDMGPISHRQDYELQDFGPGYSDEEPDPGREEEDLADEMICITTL
# measurement notes: Antagonist activity at rat voltage-dependent L-type calcium channel Cav1.3alpha-1D expressed in HEK293 cells by FLIPR assay
Express it in µM; write the number only.

> print(dat)
                                   compound  numeric.value
1  CC1=C(C(=O)OC(C)C)C(c2cccc([N+](=O)[O-])c2)NC(=S)N1 (stereo not given)           15.8
2  CNC1=NC(C)=C(C(=O)OC)C(c2cccc([N+](=O)[O-])c2)N1C(=O)OC(C)C (stereo not given)           4.22
3  COC(=O)N1C(SC)=NC(C)=C(C(=O)OC(C)C)C1c1cccc([N+](=O)[O-])c1 (stereo not given)           10.7

As a next step, examine the compound that follows.
Documented IC50 of COC(=O)N1C(=O)NC(C)=C(C(=O)OC(C)C)[C@@H]1c1cccc([N+](=O)[O-])c1 : 35.1

* * *

# test target: Voltage-dependent L-type calcium channel subunit alpha-1D (Rattus norvegicus, UniProt P27732)
# measurement notes: Antagonist activity at rat voltage-dependent L-type calcium channel Cav1.3alpha-1D expressed in HEK293 cells by FLIPR assay
# Type: cell-based
pIC50: −log10 of the molar value.
pIC50 of 6 or higher: met. Under 6: not met.

Worked examples follow.
> print(dat)
                                   molecule  qualitative.label
1  CC(C)OC(=O)C1=C(C(C)C)NC(=O)N(C(=O)OC(C)C)C1c1cccc([N+](=O)[O-])c1 (stereo not drawn)            not met
2  COC(=O)N1C(=O)NC(C)=C(C(=O)OC(C)C)[C@H]1c1cccc([N+](=O)[O-])c1            not met
3  CC1=C(C(=O)OC(C)C)[C@H](c2cccc([N+](=O)[O-])c2)N(C(=O)OC(C)C)C(=O)N1            not met

Given COC(=O)C1=C(C)N=C(SC)NC1c1cccc([N+](=O)[O-])c1 (stereo not drawn) , state whether its pIC50 is at least 6. not met

Given CNC1=NC(C)=C(C(=O)OC(C)C)C(c2cccc([N+](=O)[O-])c2)N1C(=O)OC (stereo not drawn) , state whether its pIC50 is at least 6. not met

Given CC1=C(C(=O)OC(C)C)[C@@H](c2cccc([N+](=O)[O-])c2)N(C(=O)OC(C)C)C(=O)N1 , state whether its pIC50 is at least 6. met

Given COC(=O)C1=C(C(C)C)NC(=O)N(C(=O)OC(C)C)C1c1cccc([N+](=O)[O-])c1 (stereo not drawn) , state whether its pIC50 is at least 6. not met

Given COC(=O)N1C(=S)NC(C)=C(C(=O)OC(C)C)[C@H]1c1cccc([N+](=O)[O-])c1 , state whether its pIC50 is at least 6. met

* * *

# test target: Voltage-dependent L-type calcium channel subunit alpha-1D (Rattus norvegicus, UniProt P27732)
# measurement notes: Antagonist activity at rat voltage-dependent L-type calcium channel Cav1.3alpha-1D expressed in HEK293 cells by FLIPR assay
value type: pIC50
FYI, pIC50 means -log10 of a concentration in mol per litre.

> print(dat)
                                   compound  numeric.value
1  CC1=C(C(=O)OC(C)C)C(c2cccc([N+](=O)[O-])c2)C(C(=O)OC(C)C)=C(N)O1 (centres undefined)           5.86
2  COC(=O)SC1=NC(C)=C(C(=O)OC(C)C)C(c2cccc([N+](=O)[O-])c2)N1C(=O)OC (centres undefined)           5.95
3  COC(=O)C1=C(C)NC(=O)NC1c1cccc([N+](=O)[O-])c1 (centres undefined)           4.72
4  CCOC(=O)N1C(=O)N(C(=O)OCC)C(c2cccc([N+](=O)[O-])c2)C(C(=O)OC)=C1C(C)C (centres undefined)           4.86
5  CCOC(=O)C1=C(NC(C)=O)OC(C)=C(C(=O)OC)C1c1cccc([N+](=O)[O-])c1 (centres undefined)           5.00

Documented pIC50 of COC(=O)C1=C(C)NC(=O)N(C(=O)OC(C)C)C1c1cccc([N+](=O)[O-])c1 (centres undefined) : 5.34

Documented pIC50 of CC1=C(C(=O)OC(C)C)C(c2cccc([N+](=O)[O-])c2)N(C(=O)C(C)C)C(=O)N1 (centres undefined) : 6.00

Documented pIC50 of COC(=O)C1=C(C)OC(NC(C)=O)=C(C(=O)OC(C)C)C1c1cccc([N+](=O)[O-])c1 (centres undefined) : 4.87

Documented pIC50 of COC(=O)N1C(=S)NC(C)=C(C(=O)OC(C)C)C1c1cccc([N+](=O)[O-])c1 (racemic) : 6.26

Documented pIC50 of CC1=C(C(=O)OC(C)C)C(c2cccc([N+](=O)[O-])c2)NC(=O)N1 (centres undefined) : 4.33

Documented pIC50 of COC(=O)N1C(=S)NC(C)=C(C(=O)OC(C)C)[C@@H]1c1cccc([N+](=O)[O-])c1 : 4.89

Documented pIC50 of COC(=O)C1=C(C)N=C(SC)N(C(=O)OC(C)C)C1c1cccc([N+](=O)[O-])c1 (centres undefined) : 5.25

This collection of values is drawn from ChEMBL document CHEMBL2396637.
